Biological target: human A2A receptors expressed in CHO cells (Homo sapiens)
Sequence (P29274 whole entry): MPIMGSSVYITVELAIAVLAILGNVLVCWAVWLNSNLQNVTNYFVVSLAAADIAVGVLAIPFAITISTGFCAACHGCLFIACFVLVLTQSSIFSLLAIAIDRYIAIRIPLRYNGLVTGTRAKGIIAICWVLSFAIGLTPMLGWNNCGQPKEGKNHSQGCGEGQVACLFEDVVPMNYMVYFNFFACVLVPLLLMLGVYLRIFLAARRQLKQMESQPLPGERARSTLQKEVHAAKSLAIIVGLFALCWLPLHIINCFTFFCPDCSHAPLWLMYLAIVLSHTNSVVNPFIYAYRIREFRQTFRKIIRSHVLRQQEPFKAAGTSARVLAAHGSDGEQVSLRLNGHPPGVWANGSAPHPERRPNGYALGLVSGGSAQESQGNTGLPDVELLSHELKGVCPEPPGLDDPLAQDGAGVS
Test: competition binding at human A2A adenosine receptors ([3H]NECA displacement)
Details: selectivity ratio of Ki values
Listed here: items and their measured hA1/hA2A.
measurement_kind: hA1/hA2A

[[record]]
structure_smiles_string = "COc1cccc2[nH]cc(C(=O)N3CCN(c4nc(C)cc(C)n4)CC3)c12"
measurement_kind = "hA1/hA2A"
result = ">5"

[[record]]
structure_smiles_string = "COc1cccc2c(C(=O)N3CCN(c4nc(C)cc(C)n4)CC3)c[nH]c12"
measurement_kind = "hA1/hA2A"
result = ">28"

[[record]]
structure_smiles_string = "Cc1cc(C)nc(N2CCN(CCc3c(C)[nH]c4ccccc34)CC2)n1"
measurement_kind = "hA1/hA2A"
result = ">3"

[[record]]
structure_smiles_string = "Cc1cc(C)nc(N2CCN(C(=O)c3c[nH]c4ccc(Cl)cc34)CC2)n1"
measurement_kind = "hA1/hA2A"
result = ">7"

[[record]]
structure_smiles_string = "Cc1cc(C)nc(N2CCN(C(=O)Cc3c[nH]c4ccccc34)CC2)n1"
measurement_kind = "hA1/hA2A"
result = ">4"

[[record]]
structure_smiles_string = "Cc1cc(C)nc(N2CCN(C(=O)c3c[nH]c4ccccc34)CC2)n1"
measurement_kind = "hA1/hA2A"
result = ">9"

[[record]]
structure_smiles_string = "Cc1cc(C)nc(N2CCN(C(=O)Cc3c[nH]c4cc(F)ccc34)CC2)n1"
measurement_kind = "hA1/hA2A"
result = ">4"


Data origin: paper PMC5755735
